Assay: soluble fraction after stress (log2 fold change); higher = more stays soluble; pooled small domains, quantitative proteomics;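 note: 20 min heating vs room temperature control held 20 min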
Details: stress: 75 degC
Some sequences, each annotated with its measured soluble fraction (log2).

>  <Sequence String>
HMENFYGYEIINPEAKKFFITMGVNRYALEQWIKNKSEYGLIIVKSLYPFDPRLKLFLEKNRERIQNLIF

>  <soluble fraction (log2)>
-0.526

$$$$
>  <Sequence String>
HMGLNEGLNEGQQKVIQHIQENEGIKVKEISLKLNMPIDTVDRHIRVLKNLNLIERRGSRKTGGYFISN

>  <soluble fraction (log2)>
-0.461

$$$$
>  <Sequence String>
HMISQATMEKMGLTNRERQLVDFIVRGASNQEISEKMFISINTVKIHVSNIFRKAGVRSRTELMDKYP

>  <soluble fraction (log2)>
-3.26

$$$$
>  <Sequence String>
HMSFNTNENKNLLWELMNKHNLFKDIDNQHYQEVQKLFEEEIVFISNNNKSLDLVEQNKKFLSSIITKLNK

>  <soluble fraction (log2)>
-1.84

$$$$
>  <Sequence String>
HMNVWGLSERELEATRLLIEGFSSKEASARMGISPSTVRSLWGRARAKMGVDSIEDARELVA

>  <soluble fraction (log2)>
-0.415

$$$$
>  <Sequence String>
HMESGLPLPRFVSLGADEVNLRTGPGLRYPVAWVFVRKALPVEIVAEFEQWRRVRDFEGAEGWVHKAML

>  <soluble fraction (log2)>
-0.163

$$$$
>  <Sequence String>
HMNVAVSEADAKAAALERVSGATEADIRMELELDDGYYVYEGDIIYQQKEYEFEIDAQTGKFLKWSEER

>  <soluble fraction (log2)>
-0.121

$$$$
>  <Sequence String>
HMNQTPQISYSQFIADVRSGQIKDVNIDSDNRTIVGHKFSGEEFTTFSPGDNKLVDELLNYNVEIKTSP

>  <soluble fraction (log2)>
0.611

$$$$
>  <Sequence String>
HMWGQDVLFTIDKKEFKGKLLEQSDKHTTFLPDGQKTPQKIPNRLIKEIHLGSNKIIDFGNDFLI

>  <soluble fraction (log2)>
-0.19

$$$$
>  <Sequence String>
HMIDDNTIIQIGDSYSKSIRLLGEPIELKNRSLNQKSYFMAVYDFKGRRYRLFFENDVLFDILRD

>  <soluble fraction (log2)>
-2.66

$$$$
>  <Sequence String>
HMGEGIRIDSTAVVQVGEKMYAYLGGDGFSKEFWTNLPASGELAVTLKFEPIPMDAESLDFYEMPA

>  <soluble fraction (log2)>
0.307

$$$$
>  <Sequence String>
HMREKPRETFQRIAEKVGQTLRKGPVRVQQMDLLFSESREQVMEVLRAMAESGEIRIQDDTLHWNGHT

>  <soluble fraction (log2)>
0.173

$$$$
>  <Sequence String>
HMIEIKNLSFSYGKKKQSVFNDFSLTLDKGSVYGLLGKNGTGKSTLLYLMTGLLRPQAGQVLYKGVDVS

>  <soluble fraction (log2)>
0.141

$$$$
>  <Sequence String>
HMQKIENYDQFVQAFKRLSGLDLKLYKENQMKRRINNFINNHGFKENYDQFFQAITGNKELYNAFFKHLTI

>  <soluble fraction (log2)>
-0.527

$$$$
>  <Sequence String>
HMNMPHEIDANFISSLGRLIDNHGKNYGDFQIFREMFLDYFPRFDELSSNNKEKINRRLYKFFETLFG

>  <soluble fraction (log2)>
-2.09

$$$$
>  <Sequence String>
HMTLPQEPTVLPRPLRVGDTVHIRTLDKDAEVLALPDARGMVAVRAGIINTKVKLTDLTLVEEK

>  <soluble fraction (log2)>
-0.0272

$$$$
>  <Sequence String>
HMHQVHKIDGVKYYLHLVEKGNTLYGISKQYNVSVERIEKANTEALSDGLKENQTLLIPVTSDNKKT

>  <soluble fraction (log2)>
-0.537

$$$$
>  <Sequence String>
HMTNYGTVRPGARGQAVTALQQALIRHGYKLTADGIYGRATRQAVRAFQQKHKLKVDGIVGSKTWALLLAD

>  <soluble fraction (log2)>
-2.13

$$$$
>  <Sequence String>
HMAPLAVIFPEPWRGMIAPEKLEGLTQALSLNPRPGYQHDPTRRYGVSLDGLDVRFTIDGDTLTVVEVVT

>  <soluble fraction (log2)>
-1.64

$$$$

Numbers sourced from the domain aggregation screens of Martell et al. (2025).
